studySystem: Adrenergic receptor alpha-1 (Rattus norvegicus) (UniProt P15823+P23944+P43140)
procedureDetails: […] against binding of [3H]prazosin to cloned mammalian Alpha-1 adrenergic receptor expressed in cultured cells or from rat whole brain […]
Format: cell-based
Give measured inhibition for each item. Keep answers brief.
Hi! Could you send only the number? It should be in %, unit omitted.

Problem: Recall and state the measured inhibition for COc1cc2c(cc1OC)C(CCN1CCN(c3ccc(F)cc3)CC1)OCC2 (centres undefined) .
Solution: 100

Problem: Recall and state the measured inhibition for `NS(=O)(=O)c1ccc(N2CCN(CC[C@H]3OCCc4ccccc43)CC2)cc1` .
Solution: 41

Problem: Recall and state the measured inhibition for `COc1ccc(N2CCN(CC[C@H]3OCCc4ccccc43)CC2)cc1` .
Solution: 36

Problem: Recall and state the measured inhibition for `COc1ccc(N2CCN(CC[C@@H]3OCCc4ccccc43)CC2)cc1` .
Solution: 20
